Source of measurements: paper PMC12951562

- study target: TNS2 (Homo sapiens, UniProt Q63HR2)
- Construct: made in house; host or cells: HEK293 (transient transfection), unpurified extract
- Sequence (Q63HR2 whole entry): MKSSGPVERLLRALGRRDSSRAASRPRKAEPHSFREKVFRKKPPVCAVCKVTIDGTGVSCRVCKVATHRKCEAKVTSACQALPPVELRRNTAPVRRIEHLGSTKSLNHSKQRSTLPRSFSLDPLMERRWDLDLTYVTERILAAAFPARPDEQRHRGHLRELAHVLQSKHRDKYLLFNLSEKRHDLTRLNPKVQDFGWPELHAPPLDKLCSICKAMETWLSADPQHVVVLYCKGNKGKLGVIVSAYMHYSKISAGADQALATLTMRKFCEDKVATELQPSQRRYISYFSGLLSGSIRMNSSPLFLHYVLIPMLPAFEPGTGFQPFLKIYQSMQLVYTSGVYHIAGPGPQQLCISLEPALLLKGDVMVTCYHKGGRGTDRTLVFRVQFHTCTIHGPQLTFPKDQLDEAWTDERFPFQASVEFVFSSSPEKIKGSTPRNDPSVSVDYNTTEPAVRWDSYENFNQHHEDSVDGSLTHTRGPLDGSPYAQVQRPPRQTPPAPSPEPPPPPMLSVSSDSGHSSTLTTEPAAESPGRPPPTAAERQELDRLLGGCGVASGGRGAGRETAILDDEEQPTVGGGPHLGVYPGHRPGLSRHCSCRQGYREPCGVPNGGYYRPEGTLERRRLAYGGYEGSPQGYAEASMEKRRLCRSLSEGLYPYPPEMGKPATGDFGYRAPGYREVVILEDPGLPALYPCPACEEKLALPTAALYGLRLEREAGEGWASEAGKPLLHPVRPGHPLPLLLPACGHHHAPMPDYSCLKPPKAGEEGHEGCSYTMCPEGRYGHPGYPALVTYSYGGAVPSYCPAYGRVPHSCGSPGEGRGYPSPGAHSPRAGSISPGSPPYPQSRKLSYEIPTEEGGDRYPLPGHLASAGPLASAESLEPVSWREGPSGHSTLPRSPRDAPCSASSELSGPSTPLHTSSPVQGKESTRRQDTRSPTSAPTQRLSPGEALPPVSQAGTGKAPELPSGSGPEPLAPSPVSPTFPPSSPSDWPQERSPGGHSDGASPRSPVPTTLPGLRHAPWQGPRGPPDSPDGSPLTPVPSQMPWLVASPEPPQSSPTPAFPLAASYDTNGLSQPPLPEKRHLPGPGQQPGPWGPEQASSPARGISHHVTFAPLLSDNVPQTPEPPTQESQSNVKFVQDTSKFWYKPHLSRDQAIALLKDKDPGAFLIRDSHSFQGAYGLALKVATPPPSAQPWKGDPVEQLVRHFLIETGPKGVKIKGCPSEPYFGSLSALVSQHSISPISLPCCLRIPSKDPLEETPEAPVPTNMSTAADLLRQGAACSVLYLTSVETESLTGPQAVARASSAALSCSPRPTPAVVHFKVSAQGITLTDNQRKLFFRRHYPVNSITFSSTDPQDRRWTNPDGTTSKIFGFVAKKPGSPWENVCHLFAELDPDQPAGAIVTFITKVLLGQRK
- experiment notes: biochemical
- Assay type: binding
- protocol conditions: read-out: percent of DMSO vehicle control
Non-standard residues stand in square brackets, D forms with d. Residues, ends and D or L forms follow the SMILES beside them. *: point of attachment. pY = N[C@@H](Cc1ccc(OP(=O)(O)O)cc1)C(=O)O; Caffeoyl = O=C(/C=C/c1ccc(O)c(O)c1)*
property label: remaining activity at 10 µM

| compound | property label | result |
| --- | --- | --- |
| CC(=O)N1CC[C@H]2CC[C@@H](C(=O)N[C@@H](CCC(N)=O)C(=O)NC(c3ccccc3)c3ccccc3)N2C(=O)[C@@H](NC(=O)c2cc3cc(C(F)(F)P(=O)(O)O)ccc3[nH]2)C1 | remaining activity at 10 µM | 126% |
| CC(=O)N[C@@H](Cc1ccc(CP(=O)(O)O)cc1)C(=O)NC1(C(=O)N[C@@H](CC(N)=O)C(=O)NCCCc2c(O)ccc3ccccc23)CCCCC1 | remaining activity at 10 µM | 16% |
| NC(=O)CC[C@H](NC(=O)[C@@H]1CC[C@@H]2CCN(C(=O)CCCCCC#Cc3cccc4c3CN(C3CCC(=O)NC3=O)C4=O)C[C@H](NC(=O)c3cc4cc(C(F)(F)P(=O)(O)O)ccc4[nH]3)C(=O)N21)C(=O)NC(c1ccccc1)c1ccccc1 (stereo partly shown) | remaining activity at 10 µM | 65.4% |
| CC[C@H](C)[C@H](NC(=O)[C@H](CCC(=O)O)NC(=O)[C@H](CCC(=O)O)NC(=O)[C@H](Cc1ccc(OP(=O)(O)O)cc1)NC(=O)/C=C/c1ccc(O)c(O)c1)C(=O)N[C@@H](CCC(=O)O)C(=O)O [Caffeic acid-pYEEIE] (Caffeoyl-[pY]EEIE-OH) | remaining activity at 10 µM | 4.8% |

* * *

// reported remaining activity at 10 µM for each item listed
- study target: YES (Homo sapiens, UniProt P07947)
- Construct: the DNA-tagged SH2 domain concentrations used in this study were <0.1 nM; made in house; host or cells: HEK293 (transient transfection; unpurified cell extract)
- Sequence (P07947 158-255 limits assumed): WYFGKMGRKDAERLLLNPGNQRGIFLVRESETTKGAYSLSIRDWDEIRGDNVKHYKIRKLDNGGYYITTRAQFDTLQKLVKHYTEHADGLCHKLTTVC
- experiment notes: biochemical
- Type: binding
- protocol conditions: read-out: percent of DMSO vehicle control
Non-standard residues stand in square brackets, D forms with d. Residues, ends and D or L forms follow the SMILES beside them. *: point of attachment. pY = N[C@@H](Cc1ccc(OP(=O)(O)O)cc1)C(=O)O; Caffeoyl = O=C(/C=C/c1ccc(O)c(O)c1)*

| compound | measurement units | remaining activity at 10 µM |
| --- | --- | --- |
| CC[C@H](C)[C@H](NC(=O)[C@H](CCC(=O)O)NC(=O)[C@H](CCC(=O)O)NC(=O)[C@H](Cc1ccc(OP(=O)(O)O)cc1)NC(=O)/C=C/c1ccc(O)c(O)c1)C(=O)N[C@@H](CCC(=O)O)C(=O)O [Caffeic acid-pYEEIE] (Caffeoyl-[pY]EEIE-OH) | % | 0 |
| CC(=O)N[C@@H](Cc1ccc(CP(=O)(O)O)cc1)C(=O)NC1(C(=O)N[C@@H](CC(N)=O)C(=O)NCCCc2c(O)ccc3ccccc23)CCCCC1 | % | 66.7 |
| NC(=O)CC[C@H](NC(=O)[C@@H]1CC[C@@H]2CCN(C(=O)CCCCCC#Cc3cccc4c3CN(C3CCC(=O)NC3=O)C4=O)C[C@H](NC(=O)c3cc4cc(C(F)(F)P(=O)(O)O)ccc4[nH]3)C(=O)N21)C(=O)NC(c1ccccc1)c1ccccc1 (stereo partly shown) | % | 73.3 |
| CC(=O)N1CC[C@H]2CC[C@@H](C(=O)N[C@@H](CCC(N)=O)C(=O)NC(c3ccccc3)c3ccccc3)N2C(=O)[C@@H](NC(=O)c2cc3cc(C(F)(F)P(=O)(O)O)ccc3[nH]2)C1 | % | 113 |

* * *

- study target: MATK (Homo sapiens)
- Construct: the DNA-tagged SH2 domain concentrations used in this study were <0.1 nM; made in house; host or cells: HEK293 (transient transfection, unpurified extract)
- Sequence (P42679 122-211 limits assumed): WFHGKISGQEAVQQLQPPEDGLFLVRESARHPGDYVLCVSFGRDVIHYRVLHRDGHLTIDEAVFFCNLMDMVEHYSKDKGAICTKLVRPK
- experiment notes: biochemical
- Format: binding
- protocol conditions: primary screen, 10 μM; read-out: percent of DMSO vehicle control
Each item that follows carries a reported remaining activity at 10 µM.
property label: remaining activity at 10 µM (%)

| smiles code | property label | measured number |
| --- | --- | --- |
| O=C(CCl)Nc1cccc(CNC(=O)[C@H](Cc2ccc(OP(=O)(O)O)cc2)NC(=O)Cc2ccc(F)cc2)c1 | remaining activity at 10 µM | 60.4 |
| O=C(COc1ccc2cc(C(=O)Nc3ccccc3)ccc2c1)NCc1ccc(OP(=O)(O)O)c(OP(=O)(O)O)c1 | remaining activity at 10 µM | 59.9 |
| CC(C)(C)[C@H](NC(=O)/C=C/c1ccc(OP(=O)(O)O)cc1)C(=O)N1CCC[C@H]1C(=O)N(c1ccccc1)c1ccc(I)cc1 | remaining activity at 10 µM | 70.3 |
| C/C(=C\C(=O)N[C@H](C(=O)N1CCC[C@H]1C(=O)N(c1ccccc1)c1ccc(I)cc1)C(C)(C)C)c1ccc(OP(=O)(O)O)cc1 | remaining activity at 10 µM | 6.5 |

* * *

- study target: SOCS4 (Homo sapiens)
- Construct: made in house; host or cells: HEK293 (transient transfection), unpurified extract
- Sequence (Q8WXH5 1-440): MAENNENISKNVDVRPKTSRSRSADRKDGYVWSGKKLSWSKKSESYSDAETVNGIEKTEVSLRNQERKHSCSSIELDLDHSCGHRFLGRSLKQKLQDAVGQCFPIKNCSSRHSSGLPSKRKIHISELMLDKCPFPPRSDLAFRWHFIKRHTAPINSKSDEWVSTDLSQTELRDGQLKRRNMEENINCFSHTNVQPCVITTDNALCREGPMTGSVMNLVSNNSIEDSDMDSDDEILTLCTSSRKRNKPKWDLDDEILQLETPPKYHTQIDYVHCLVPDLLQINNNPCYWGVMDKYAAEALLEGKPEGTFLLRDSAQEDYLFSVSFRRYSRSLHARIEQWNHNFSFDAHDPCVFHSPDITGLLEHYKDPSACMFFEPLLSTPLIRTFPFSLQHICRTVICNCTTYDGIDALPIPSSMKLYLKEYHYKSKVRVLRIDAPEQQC
- experiment notes: biochemical
- Format: binding
- protocol conditions: dose-response; read-out: KD

| compound | measurement units | Kd |
| --- | --- | --- |
| CC(C)(C)[C@H](NC(=O)/C=C/c1ccc(OP(=O)(O)O)cc1)C(=O)N1CCC[C@H]1C(=O)N(c1ccccc1)c1ccc(I)cc1 [STAT6-IN-3] | nM | 10 |
| O=C(COc1ccc2cc(C(=O)Nc3ccccc3)ccc2c1)NCc1ccc(OP(=O)(O)O)c(OP(=O)(O)O)c1 [Stafib-1] | nM | 3900 |
| O=C(CCl)Nc1cccc(CNC(=O)[C@H](Cc2ccc(OP(=O)(O)O)cc2)NC(=O)Cc2ccc(F)cc2)c1 [MN551] | nM | 64 |
| C/C(=C\C(=O)N[C@H](C(=O)N1CCC[C@H]1C(=O)N(c1ccccc1)c1ccc(I)cc1)C(C)(C)C)c1ccc(OP(=O)(O)O)cc1 [STAT6-IN-1] | nM | 13 |

* * *

remaining activity at 10 µM reference
- study target: SRC (Homo sapiens)
- Construct: made in house; host or cells: HEK293 (transient transfection), unpurified extract
- Sequence (P12931 whole entry): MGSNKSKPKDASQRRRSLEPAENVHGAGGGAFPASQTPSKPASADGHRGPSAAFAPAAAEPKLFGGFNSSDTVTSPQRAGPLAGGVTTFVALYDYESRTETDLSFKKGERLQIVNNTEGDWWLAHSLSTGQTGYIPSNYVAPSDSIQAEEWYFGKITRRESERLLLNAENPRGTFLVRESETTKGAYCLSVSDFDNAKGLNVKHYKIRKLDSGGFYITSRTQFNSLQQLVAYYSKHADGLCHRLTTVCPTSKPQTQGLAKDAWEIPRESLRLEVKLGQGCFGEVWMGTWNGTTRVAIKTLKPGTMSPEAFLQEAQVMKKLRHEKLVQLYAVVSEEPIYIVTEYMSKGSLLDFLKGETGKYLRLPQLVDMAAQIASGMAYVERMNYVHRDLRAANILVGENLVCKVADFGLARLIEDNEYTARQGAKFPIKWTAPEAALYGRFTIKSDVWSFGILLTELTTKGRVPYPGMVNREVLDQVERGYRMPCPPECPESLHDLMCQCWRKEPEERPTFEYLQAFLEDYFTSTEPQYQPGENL
- experiment notes: biochemical
- Assay type: binding
- protocol conditions: read-out: percent of DMSO vehicle control
Non-standard residues stand in square brackets, D forms with d. Residues, ends and D or L forms follow the SMILES beside them. *: point of attachment. pY = N[C@@H](Cc1ccc(OP(=O)(O)O)cc1)C(=O)O; Caffeoyl = O=C(/C=C/c1ccc(O)c(O)c1)*

| compound | study target | remaining activity at 10 µM / % |
| --- | --- | --- |
| CC[C@H](C)[C@H](NC(=O)[C@H](CCC(=O)O)NC(=O)[C@H](CCC(=O)O)NC(=O)[C@H](Cc1ccc(OP(=O)(O)O)cc1)NC(=O)/C=C/c1ccc(O)c(O)c1)C(=O)N[C@@H](CCC(=O)O)C(=O)O [Caffeic acid-pYEEIE] (Caffeoyl-[pY]EEIE-OH) | SRC (Homo sapiens) | 0 |
| CC(=O)N[C@@H](Cc1ccc(CP(=O)(O)O)cc1)C(=O)NC1(C(=O)N[C@@H](CC(N)=O)C(=O)NCCCc2c(O)ccc3ccccc23)CCCCC1 [CGP78850] | SRC (Homo sapiens) | 99.2 |
| NC(=O)CC[C@H](NC(=O)[C@@H]1CC[C@@H]2CCN(C(=O)CCCCCC#Cc3cccc4c3CN(C3CCC(=O)NC3=O)C4=O)C[C@H](NC(=O)c3cc4cc(C(F)(F)P(=O)(O)O)ccc4[nH]3)C(=O)N21)C(=O)NC(c1ccccc1)c1ccccc1 (stereo partly shown) [SD-36] | SRC (Homo sapiens) | 81.4 |
| CC(=O)N1CC[C@H]2CC[C@@H](C(=O)N[C@@H](CCC(N)=O)C(=O)NC(c3ccccc3)c3ccccc3)N2C(=O)[C@@H](NC(=O)c2cc3cc(C(F)(F)P(=O)(O)O)ccc3[nH]2)C1 [SI-109] | SRC (Homo sapiens) | 117 |
